Molecular target: Aquaporin-9 (AQP9) (Homo sapiens)
Construct: 10×His-hAQP9 (N-terminal 10-histidine tag), purified from P. pastoris, reconstituted in proteoliposomes
Sequence (O43315 1-295): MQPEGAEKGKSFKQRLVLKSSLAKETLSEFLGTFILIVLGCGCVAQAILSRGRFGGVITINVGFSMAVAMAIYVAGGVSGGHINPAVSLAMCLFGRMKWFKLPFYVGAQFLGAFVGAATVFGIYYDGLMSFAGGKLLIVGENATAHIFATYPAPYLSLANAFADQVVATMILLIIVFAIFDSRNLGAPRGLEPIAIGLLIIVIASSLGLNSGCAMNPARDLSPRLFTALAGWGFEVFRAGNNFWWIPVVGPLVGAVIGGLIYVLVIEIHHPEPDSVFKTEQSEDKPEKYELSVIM
Assay: stopped-flow light scattering of purified AQP9 proteoliposomes ([…], −[…] Pgly); IC50 (water permeability; glycerol […]) from calcein quenching in human AQP9-expressing CHO cells
pIC50: −log10 of the molar value.
measure name: pIC50

Query (compound): O=C(CCc1ccc(O)cc1)c1c(O)cc(O)cc1O ; field requested: pIC50
~6.70

Data provenance is paper PMC9562188.
